Test system: Neuregulin-1 EGF-like domain
protocol: binders of neuregulin-1 EGF-like domain, primary screen, biochemical, small-molecule microarray, 635 nm fluorescence (AID 1081);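 note: binding of the protein to compounds printed on small-molecule microarray slides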
study conditions: small-molecule microarray binding, higher = more signal
endpoint: composite z-score

- COC(=O)[C@@]1(Cc2ccc(OC)cc2)[C@H]2c3cc(C(=O)N(C)C)n(Cc4nc5ccccc5[nH]4)c3C[C@H]2CN1C(=O)c1ccccc1: 1.23
- C=C(/C(=C/C[C@@H](OC(=O)c1ccncc1)c1ccccc1OCCO)c1cc(C(=O)OC)ccc1OC)C(C)C: 1.1
- Cc1ccc(S[C@]2(C(=O)NCC(F)(F)F)CC(=O)N(Cc3ccccc3)[C@@H]2c2ccc(CO)cc2)cc1: 0.463
- COc1cc(CO)cc(I)c1O[C@H]1C=C(C(=O)NCCO)C[C@@H](N(Cc2ccc(F)cc2)C(=O)C2CCCO2)[C@@H]1O (some centres undefined): 0.547

###

tested target: NADPH oxidase 2 (Homo sapiens) (UniProt P04839)
Sequence (P04839 whole entry, looked up): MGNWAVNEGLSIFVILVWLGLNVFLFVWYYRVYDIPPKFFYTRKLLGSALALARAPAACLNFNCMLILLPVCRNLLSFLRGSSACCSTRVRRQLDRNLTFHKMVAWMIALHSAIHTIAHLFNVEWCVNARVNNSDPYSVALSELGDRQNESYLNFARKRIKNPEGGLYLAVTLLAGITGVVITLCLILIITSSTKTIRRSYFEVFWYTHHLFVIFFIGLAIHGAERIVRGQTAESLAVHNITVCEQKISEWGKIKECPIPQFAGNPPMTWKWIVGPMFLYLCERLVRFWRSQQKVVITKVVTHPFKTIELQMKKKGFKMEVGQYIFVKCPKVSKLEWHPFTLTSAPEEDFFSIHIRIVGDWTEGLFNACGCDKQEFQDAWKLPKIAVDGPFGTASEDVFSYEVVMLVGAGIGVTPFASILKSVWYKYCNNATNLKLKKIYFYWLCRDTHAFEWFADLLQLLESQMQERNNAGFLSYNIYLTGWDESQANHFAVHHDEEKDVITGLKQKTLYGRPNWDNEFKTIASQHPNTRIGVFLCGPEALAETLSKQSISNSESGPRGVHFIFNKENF
protocol: NOX2-dependent H2O2 signal modulators, primary screen, NOX inhibitor project, cell-based, HEK293-NOX2, PMA-stimulated, Amplex Red fluorescence (AID 1159); note: test concentration not given here
study conditions: 45 min, higher = more signal, called active from +8 up or from −8 down
Active and inactive are the calls of the source.
endpoint: z-score

• C=CCOC(=O)[C@@H]1[C@H]2C(=O)O[C@H](c3ccccc3)[C@H](c3ccccc3)N2[C@H](c2ccc(OCCOC(=O)[C@H]3C[C@H]4C(=O)N[C@@H](CCCCNC(C)=O)C(=O)N4[C@H]3c3cccc(OCCO)c3)cc2)[C@@]12C(=O)Nc1ccc(I)cc12 = 1.62 (inactive)
• O=C(NC1CC1)[C@@H]1c2ccccc2C(=O)N(Cc2ccccc2)[C@H]1c1ccc(CO)cc1 = -0.962 (inactive)
• COc1ccc(NC(=O)O[C@H]2[C@H](OC(=O)Nc3ccc4c(c3)OCO4)[C@@H](OC(=O)Nc3ccc4c(c3)OCO4)[C@@H](OC)O[C@@H]2CO)cc1 = -3.33 (inactive)
• CC(C)C(O)C1C=CC2C(=O)N(C)C(=O)C2N1N(c1ccccc1)c1ccccc1 (stereo unspecified) = -0.71 (inactive)
• COC(=O)c1c(CC[C@@H](CO)NC(=O)N[C@H](Cn2cc(-c3ccccc3C)nn2)C(C)C)oc(C(C)=O)c1C(=O)OC = -3.2 (inactive)
• CN(C)CCCNC(=O)[C@@H]1c2ccccc2C(=O)N(CC23CC4CC(CC(C4)C2)C3)[C@H]1c1ccc(CO)cc1 = -2.04 (inactive)

###

protocol: Plasmodium falciparum growth inhibition, primary screen, strain 3D7, DAPI fluorescence, 100 nL (AID 1184);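 note: parasites grown inside human red blood cells in medium with human serum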
study conditions: P. falciparum 3D7 growth, 3 d, higher = more signal
Entries and their z-score values follow.
endpoint: z-score

* [N-]=[N+]=NCc1ccccc1[C@H]1OC(c2ccc(OCCCO)cc2)=N[C@@]1(CCS(=O)(=O)c1ccccc1)C(N)=O | -1.09
* COc1ccc([Si](C)(C)[C@@H]2[C@@H](CCO)O[C@]3(C(=O)N(Cc4cccc(N5C(=O)c6ccccc6Oc6ccccc65)c4)c4ccccc43)[C@H]2C)cc1 | -2.47
* O=C(O)[C@H]1C[C@H]2C(=O)N3CCC[C@H]3C(=O)N2[C@H]1c1cccc(OCCO)c1 | -0.0612
* [N-]=[N+]=NCc1ccccc1C[C@@]1(C(=O)N2CCCCC2)N=C(c2ccc(OCCCO)cc2)O[C@@H]1c1ccccc1N=[N+]=[N-] | -2.24
* Cc1ccc(S[C@]2(C(=O)NC(C)C)CC(=O)N(Cc3ccccc3C(F)(F)F)[C@@H]2c2ccc(CO)cc2I)cc1 | -1.14
* C[C@H]1C2=C3C(CC[C@H]4C(OCc5ccc(F)cc5C(F)(F)F)OC[C@](C)([C@@H]34)N(C(=O)OC(C)(C)C)C2)C(CO)C1CO (stereo partly drawn) | -0.736
* C[C@@H]1ON(c2ccc(C(=O)OC(C)(C)C)cc2)[C@H](c2ccc(Br)cc2)[C@H]1C(=O)N1C(=O)OC[C@H]1Cc1ccccc1 | -0.238
* COc1c(C)cc(-c2cc3c(c(-c4ccccc4)n2)[Si](C(C)C)(C(C)C)OC3)cc1C | -1.03
* NC(=O)NCC#Cc1ccc2c(c1)[C@]1(C(=O)N2)[C@H](C(=O)Nc2nc3ccccc3s2)[C@H]2C(=O)O[C@H](c3ccccc3)[C@H](c3ccccc3)N2[C@@H]1c1ccc(O)cc1 | -0.905
* C=C(COC)/C(=C/C[C@@H](OC(=O)c1ccncc1)c1ccc(CO)o1)c1cnc2ccccc2c1 | -0.58
* C=CC[C@]1(C(=O)N(C)C)N=C(c2ccc(OCCCO)cc2)O[C@H]1c1ccccc1N=[N+]=[N-] | -1.8
* O=c1cccc(-c2ccc(C(F)(F)F)cc2)o1 | 1.39
* COC1(C)CN(Cc2ccccc2Br)[C@H](/C=C/c2ccccc2)[C@H](Cc2ccccc2)O1 (stereo partly drawn) | 0.502
* CN(C)CCCCNC(=O)[C@H]1C[C@H]2C(=O)N3CCC[C@H]3C(=O)N2[C@H]1c1ccc(O)cc1 | -1.25
* CC(C)(C)OC(=O)CC[C@@]1(C(=O)O)N=C(c2ccc(OCCCO)cc2)O[C@@H]1c1ccccc1CN=[N+]=[N-] | 0.664
* O=C1O[C@@H](c2ccccc2)[C@@H](c2ccccc2)N2[C@@H](c3ccc(O)cc3)[C@]3(C(=O)Nc4ccc(C#CCCO)cc43)[C@@H](C(=O)Nc3nc4ccccc4s3)[C@H]12 | 0.204
* CCCC[C@@H]1C[C@H]1[C@@H](NC(=O)c1ccccc1)c1ccc(Cl)cc1 | -0.385
* CCOC(=O)C1=CC[C@@H](c2ccccc2)N(S(=O)(=O)c2ccc(C)cc2)C1 | -0.557
* COC(=O)C1(Cc2ccccc2)C=C2C(=C(C(C)C)C(=O)C2C)CN1 (stereo not drawn) | -1.07
* C[C@@H](OCc1ccccc1)C1NC(=O)[C@@]23C(=O)N[C@@H](Cc4ccccc4)C2[C@H](C)[C@@]2(C)O[C@H]2C3/C=C/C/C=C\CNC(=O)CNC1=O (stereo partly drawn) | -0.748
* COc1ccc(C(O)C2C=CC3C(=O)N(C)C(=O)C3N2N2CCCCC2)cc1 (stereo not drawn) | -0.0513
* CCOC(=O)C[C@H]1[C@H](OC(=O)c2ccc(-c3ccccc3)cc2)[C@@H](NC(=O)c2ccc3ccccc3c2)c2cc(OCCCO)ccc2N1C(=O)c1ccc2ccccc2n1 | 0.563
* CCOC(=O)[C@H]1C/C=C/C[C@H](C(=O)OCC)C(=O)O[C@H]2[C@@H](OC)O[C@H](CO)[C@@H](OC(=O)Nc3ccc(OC)cc3)[C@@H]2OC1=O | -1.71
* [N-]=[N+]=NCc1ccccc1C[C@]1(C(=O)NCC(O)CO)N=C(c2ccc(OCCCO)cc2)O[C@H]1c1ccccc1CN=[N+]=[N-] (stereo partly drawn) | -2.78
* C=CCN1C(=O)[C@@]2(O[C@@H](CCn3cc([C@H](O)c4ccccc4)nn3)[C@H]([Si](C)(C)c3ccc(OC)cc3)[C@H]2C)c2ccccc21 | -0.99
* COc1ccc([Si](C)(C)[C@H]2[C@H](CCn3cc(CCO)nn3)O[C@@]3(C(=O)N(Cc4ccc(N5C(=O)c6cccc7cccc5c67)cc4)c4ccccc43)[C@@H]2C)cc1 | -2.28
* COCCOC(=O)N1C(=O)[C@@]2(c3cc(C#CCNC(N)=O)ccc31)[C@H](C(=O)N1CCCCCCC1)[C@H]1C(=O)O[C@H](c3ccccc3)[C@H](c3ccccc3)N1[C@@H]2c1ccc(O)cc1 | 0.178
* COCCCNC(=O)[C@]1(CCC(=O)OC(C)(C)C)N=C(c2ccc(OCCCO)cc2)O[C@@H]1c1ccccc1 | 0.83
